- ASSAY_SYSTEM: IRAK4 (Homo sapiens, UniProt Q9NWZ3)
- Construct: endogenous in cells; host or cells: Karpas299
- Sequence (Q9NWZ3 whole entry): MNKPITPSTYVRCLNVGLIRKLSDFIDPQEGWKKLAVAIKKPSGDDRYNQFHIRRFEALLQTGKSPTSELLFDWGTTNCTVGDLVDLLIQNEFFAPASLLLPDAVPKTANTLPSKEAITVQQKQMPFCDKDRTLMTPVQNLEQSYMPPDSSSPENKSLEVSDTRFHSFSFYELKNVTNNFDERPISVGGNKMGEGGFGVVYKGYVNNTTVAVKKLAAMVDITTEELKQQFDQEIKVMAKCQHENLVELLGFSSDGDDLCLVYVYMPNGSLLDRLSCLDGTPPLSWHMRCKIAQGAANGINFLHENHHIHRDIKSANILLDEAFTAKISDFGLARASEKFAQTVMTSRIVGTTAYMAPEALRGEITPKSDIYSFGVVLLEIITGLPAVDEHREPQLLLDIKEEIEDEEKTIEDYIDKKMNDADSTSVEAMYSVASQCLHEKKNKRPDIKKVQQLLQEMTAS
- PROCEDURE_TEXT: IRAK4 Degradation Assay with Human Serum (Karpas299, HTRF/TR-FRET)
- Assay type: cell-based
- CONDITION_SET: Karpas-299 in human serum, 24 hrs treatment; read-out: IRAK4 degradtion with human serum assay Dmax (%)
PARAMETER_MEASURED: Dmax (%)
Unit % implied. Number only.

Entry COc1cc2nn([C@H]3CC[C@H](N4CCN(C5CCN(c6cc(F)c([C@H]7CCC(=O)NC7=O)c(F)c6)CC5)CC4)CC3)cc2cc1NC(=O)c1ccc2cc(C#N)cnn12 ; Dmax = 92

Sample C[C@H]1CN(CCc2cc(F)c([C@H]3CCC(=O)NC3=O)c(F)c2)CCN1[C@H]1CC[C@H](n2cc3cc(NC(=O)c4ccc5cc(C#N)cnn45)c(C(C)(C)O)cc3n2)CC1 ; Dmax observed: 99

Item: COC[C@H]1CN(C(=O)C2CN(c3cc(F)c([C@H]4CCC(=O)NC4=O)c(F)c3)C2)CCN1[C@H]1CC[C@H](n2cc3cc(NC(=O)c4ccc5cc(C#N)cnn45)c(C(C)(C)O)cc3n2)CC1 | Dmax: 97
